Parameter 'readout' = Ki; parameter 'system' = 5HT1A (Homo sapiens, UniProt P08908).
Sequence (P08908 whole entry, species assumed): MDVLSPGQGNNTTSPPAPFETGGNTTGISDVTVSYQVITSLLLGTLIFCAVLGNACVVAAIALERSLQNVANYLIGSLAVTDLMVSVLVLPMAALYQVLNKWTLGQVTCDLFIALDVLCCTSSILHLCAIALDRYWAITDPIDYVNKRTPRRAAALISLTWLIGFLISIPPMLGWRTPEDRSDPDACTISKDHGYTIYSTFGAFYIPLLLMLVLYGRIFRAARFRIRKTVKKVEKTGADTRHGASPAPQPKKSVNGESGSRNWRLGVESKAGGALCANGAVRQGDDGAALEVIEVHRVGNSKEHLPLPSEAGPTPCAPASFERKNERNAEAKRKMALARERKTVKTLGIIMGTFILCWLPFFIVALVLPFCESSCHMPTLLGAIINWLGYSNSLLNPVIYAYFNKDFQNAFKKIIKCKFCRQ
Just the number please, in µM, no unit attached.

COc1cc2c(cc1O)CN1CCc3cc(OC)c(O)cc3[C@@H]1C2 [l-govadine] ... 15.2

We now examine a further compound.
Item: COc1cc2c(cc1O)CN1CCc3cc(OC)c(O)cc3[C@H]1C2 [d-govadine] | System: 5HT1A (Homo sapiens, UniProt P08908) | Ki: 18.2

###

# tested.target: 5HT2A (Homo sapiens, UniProt P28223)
# Sequence (P28223 whole entry, species assumed): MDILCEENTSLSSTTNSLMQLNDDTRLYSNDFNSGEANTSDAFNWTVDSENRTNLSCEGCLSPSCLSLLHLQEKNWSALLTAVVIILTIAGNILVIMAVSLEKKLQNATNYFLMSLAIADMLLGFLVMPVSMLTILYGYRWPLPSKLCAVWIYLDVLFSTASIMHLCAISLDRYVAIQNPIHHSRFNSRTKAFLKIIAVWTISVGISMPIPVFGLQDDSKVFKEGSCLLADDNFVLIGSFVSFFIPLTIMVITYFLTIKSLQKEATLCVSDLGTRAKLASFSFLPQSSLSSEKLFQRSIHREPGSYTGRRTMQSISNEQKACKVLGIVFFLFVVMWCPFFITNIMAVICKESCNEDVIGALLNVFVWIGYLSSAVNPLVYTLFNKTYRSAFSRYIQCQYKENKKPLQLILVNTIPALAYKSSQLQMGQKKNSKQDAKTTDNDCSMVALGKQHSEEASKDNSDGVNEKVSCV
Reported values of Ki for individual entries
A bare number is not enough; add the unit after it.

COc1cc2c(cc1O)CN1CCc3cc(OC)c(O)cc3[C@H]1C2 ... 11.8 µM

So the reported Ki for COc1cc2c(cc1O)CN1CCc3cc(OC)c(O)cc3[C@@H]1C2 , on 5HT2A (Homo sapiens, UniProt P28223), turned out to be 11.1 µM

###

# tested.target: D3 (Homo sapiens, UniProt P35462)
# Sequence (P35462 whole entry): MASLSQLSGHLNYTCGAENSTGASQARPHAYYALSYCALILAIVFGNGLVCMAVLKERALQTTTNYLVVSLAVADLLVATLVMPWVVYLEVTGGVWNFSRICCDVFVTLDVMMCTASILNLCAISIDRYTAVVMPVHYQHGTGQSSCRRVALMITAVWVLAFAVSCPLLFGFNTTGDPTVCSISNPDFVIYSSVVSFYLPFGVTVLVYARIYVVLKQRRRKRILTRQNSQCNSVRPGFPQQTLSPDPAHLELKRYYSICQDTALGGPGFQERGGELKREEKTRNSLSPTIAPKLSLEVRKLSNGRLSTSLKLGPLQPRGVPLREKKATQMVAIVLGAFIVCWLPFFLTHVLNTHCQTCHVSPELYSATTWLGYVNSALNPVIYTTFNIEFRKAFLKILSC
Ki by entry:
Report the figure in nM without appending any unit label.

The molecule COc1cc2c(cc1O)CN1CCc3cc(OC)c(O)cc3[C@H]1C2 , when measured on D3 (Homo sapiens, UniProt P35462), yielded Ki of 606

Reported D3 (Homo sapiens, UniProt P35462) Ki for item COc1cc2c(cc1O)CN1CCc3cc(OC)c(O)cc3[C@@H]1C2 was 548

###

# assay.details: Catalepsy (bar test)
# Assay type: in vivo, rat
# settings: rat, in vivo; present data; SC, 45 min time point
readout.name: ED50 at 45 min
Don't forget the unit after the value.

So, COc1cc2c(cc1O)CN1CCc3cc(OC)c(O)cc3C1C2 (racemic) ? Its ED50 at 45 min was 4.7 mg/kg
